Could you please report measured pEC50 for the items listed next?
# Test system: Splenocyte
# Assay Details: Immunosuppressive activity in BALB/c mouse splenocytes assessed as reduction in LPS-induced mouse B-lymphocytes proliferation incubated for 48 hrs by MTT assay
# Type: functional, cell-based
Note on units: pEC50 is unitless, being -log10 of a concentration expressed in mol/L.

Task: Query (compound): `CC/C=C/C=C/[C@@]1(C)OC(C[C@@H](C)[C@]2(C)C(=O)[C@]3(C)C(C)=C[C@H]4[C@]5(C=O)CC[C@H](OC(C)=O)C(C)(C)[C@H]5CC[C@]4(C)[C@]3(C(=O)OC)C2=O)=C(C(=O)OC)C1=O` ; field requested: pEC50
Output: 5.12

Task: Requested read-out: pEC50. Entry: `COC(=O)[C@@]12C(=O)[C@](C)(C(=O)c3cc(OC)c(O)c(O)c3C(C)=O)C(=O)[C@]1(C)C(C)=C[C@H]1[C@]3(C=O)CC[C@H](OC(C)=O)C(C)(C)[C@H]3CC[C@@]12C`
Output: 4.64

Task: Please report the recorded pEC50 for `COC(=O)[C@@]12C(=O)[C@](C)(Cc3c(O)c(C)cc(C(C)=O)c3O)C(=O)[C@]1(C)C(C)=C[C@H]1[C@]3(CO)CC[C@H](OC(C)=O)C(C)(C)[C@H]3CC[C@@]12C` .
Output: 4.30
